Hi there, I'd appreciate the recorded collision cross section (N2) for every entry that follows.
Conditions: [M+Na]+; instrument: DT; single field, calibrated with Agilent tune mix (Agilent)
Return type: number; implicit unit Å².

-- ask Given the molecule CCCCCCCCCC/C=C\CCCCCCCCCC(=O)O[C@H](COC(=O)CCCCCCCCCCC)COP(=O)(O)O[C@H]1C(O)C(O)C(O)[C@@H](O)C1O (some centres undefined) , what is its reported collision cross section (N2)?
-- reply 292.4

-- ask Entry "CCCCCCCCCCCCC=CC[C@@H](O)[C@H](CO)NC(=O)CC=CCCCCCCCCCCCCCCCCCCC" please
-- reply 273.8

-- ask Can you check "CCCC/C=C\CCCCCCCC(=O)OC[C@H](COP(=O)(O)O)OC(=O)CCCCCCCCCCCCCCCCCCCCC" next?
-- reply 275.6

-- ask Check "CCCCCCCCCCCCC=CC[C@@H](O)[C@H](CO)NC(=O)CCCCCCCCCCCCCCCCC" too.
-- reply 268.6
